# Test system: HCT116;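 also: HCT116 colorectal carcinoma cells screened at five concentrations per compound, luminescent viability scaled between DMSO wells and empty wells on each plate, curves fitted per compound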
# protocolDescription: AC50 cell viability (CellTiter-Glo); higher = less potent
# conditionSet: 48 h
# AC50 cell viability listing for each entry below
The reply should contain only the number, in µM.

// worked examples, AC50 cell viability included
COc1ccc(COc2ccc(Cc3cnc(N)nc3N)cc2OC)cc1 [GW-2580]: 14.8
CCNCCc1ccc(CN(CC)c2cc(OC)ccc2[C@@H]2CCc3cc(O)ccc3C2)cc1 [Elacestrant]: 7.42
Cc1ccc(-c2ncn(-c3ccc(Nc4nccc(-c5cccc(N6CCOCC6)c5)n4)cc3)n2)cn1 [SR-3306]: 1.48
COC(=O)Nc1cc(Nc2cc(NC3CC3)c3ncc(C#N)n3n2)c(Cl)c(N2CCN(C)CC2)c1 [BMS-595]: 0.525
CCN(CC)CCCC(C)Nc1c2ccc(Cl)cc2nc2ccc(OC)cc12.Cl.Cl.O.O (configuration not stated) [Quinacrine]: 8.33

## Task Tell me the measured AC50 cell viability of COC(=O)C1C2CC3c4[nH]c5cc(OC)ccc5c4CCN3CC2CC(OC(=O)c2cc(OC)c(OC)c(OC)c2)C1OC (configuration not stated) [Reserpine] , please.
## Result 20.9

## Task Tell me the measured AC50 cell viability of CO[C@H]1CC[C@H](N2C(=O)CNc3ncc(-c4ccc(C(C)(C)O)nc4)nc32)CC1 [CC-223] , please.
## Result 9.34
